Tested on: Raji
assay: Cytotoxicity against human Raji cells assessed as inhibition of cell proliferation after 3 days by coulter counter analysis
Format: functional, cell-based
measurement.parameters: 72 h
endpoint.name: pIC50
Scale for pIC50: -log10 of concentration given in mol/L; no unit attached.

In the examples that follow, each entry is paired with its recorded pIC50.
# compound.string, study.system, pIC50
rows = [
    ("CN1C(=O)N[C@H]2[C@@H]3NC(=O)c4ccc(C5CC5)n4[C@@H]3C[C@]21O", "Raji", 6.40),
    ("CN1C(=O)N[C@H]2[C@@H]3NC(=O)c4ccc(Br)n4[C@@H]3C[C@]21O", "Raji", 6.85),
    ("CCN1C(=O)N[C@H]2[C@@H]3NC(=O)c4ccc(Cl)n4[C@@H]3C[C@]21O", "Raji", 6.52),
    ("CN1C(=O)N[C@H]2[C@@H]3NC(=O)c4cccn4[C@@H]3C[C@]21O", "Raji", 5.50),
    ("CN1C(=O)N[C@H]2[C@@H]3NC(=O)c4ccc(Cl)n4[C@@H]3C[C@]21O", "Raji", 6.74),
    ("CN1C(=O)N[C@H]2[C@@H]3NC(=O)c4ccc(-c5ccccc5)n4[C@@H]3C[C@]21O", "Raji", 5.42),
]

input: For the compound `CCN1C(=O)N[C@H]2[C@@H]3NC(=O)c4cc(Cl)c(Cl)n4[C@@H]3C[C@]21O` , give its reported pIC50.
output: 6.21
